Molecular target: Aurora kinase A (Homo sapiens)
Sequence (O14965 whole entry): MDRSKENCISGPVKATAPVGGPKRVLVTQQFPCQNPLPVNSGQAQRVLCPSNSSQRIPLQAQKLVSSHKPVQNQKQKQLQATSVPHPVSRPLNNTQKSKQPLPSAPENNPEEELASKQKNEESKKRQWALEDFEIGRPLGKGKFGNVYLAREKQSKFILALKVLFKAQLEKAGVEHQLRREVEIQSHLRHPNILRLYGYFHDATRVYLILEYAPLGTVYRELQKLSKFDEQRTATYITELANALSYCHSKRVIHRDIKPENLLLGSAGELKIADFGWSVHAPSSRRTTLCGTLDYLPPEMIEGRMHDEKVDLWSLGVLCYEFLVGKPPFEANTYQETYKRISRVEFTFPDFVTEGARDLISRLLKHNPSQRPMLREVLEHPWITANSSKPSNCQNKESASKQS
pIC50: −log10 of the molar value.
OBSERVATION_TYPE: pIC50

> print(dat)
                               input.smiles  experimental.value
1  COc1ncc(-c2cc3c(c(NC(=O)CN4CCOCC4)c2)COC3)cc1NS(C)(=O)=O              < 5.00

====

Molecular target: Inhibitor of nuclear factor kappa-B kinase subunit alpha (Homo sapiens)
Sequence (O15111 whole entry): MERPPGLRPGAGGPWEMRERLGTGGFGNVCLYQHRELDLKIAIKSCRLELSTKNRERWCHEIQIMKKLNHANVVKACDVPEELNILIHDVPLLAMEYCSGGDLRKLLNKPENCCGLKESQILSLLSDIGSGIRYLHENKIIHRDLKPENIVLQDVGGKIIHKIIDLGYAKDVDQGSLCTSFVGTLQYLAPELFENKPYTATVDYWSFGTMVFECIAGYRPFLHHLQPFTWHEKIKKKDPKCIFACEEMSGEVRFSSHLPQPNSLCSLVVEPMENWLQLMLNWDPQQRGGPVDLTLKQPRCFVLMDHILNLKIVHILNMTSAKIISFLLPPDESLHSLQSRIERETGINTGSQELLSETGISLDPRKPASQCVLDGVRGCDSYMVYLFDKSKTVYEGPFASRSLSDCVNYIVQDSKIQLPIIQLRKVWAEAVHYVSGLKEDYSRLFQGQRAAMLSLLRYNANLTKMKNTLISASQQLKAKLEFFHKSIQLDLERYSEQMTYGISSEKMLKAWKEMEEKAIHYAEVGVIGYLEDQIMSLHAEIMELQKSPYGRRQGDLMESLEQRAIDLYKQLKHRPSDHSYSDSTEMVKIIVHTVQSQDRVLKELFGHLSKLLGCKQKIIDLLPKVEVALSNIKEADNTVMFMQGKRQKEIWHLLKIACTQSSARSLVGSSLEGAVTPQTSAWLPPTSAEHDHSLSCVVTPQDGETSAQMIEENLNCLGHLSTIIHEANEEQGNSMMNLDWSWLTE
Experiment: Inhibition of IKK1 (unknown origin)
OBSERVATION_TYPE: IC50

> print(dat)
                               input.smiles  observation.type  experimental.value
1  COc1ncc(-c2cc3c(c(NC(=O)CN4CCOCC4)c2)COC3)cc1NS(C)(=O)=O              IC50             > 10 µM

====

Test: Half life in Sprague-Dawley rat at 1 mg/kg, iv by LC-MS/MS analysis
Type: ADME, organism-based
Settings: in vivo
OBSERVATION_TYPE: half-life (h)

> print(dat)
                               input.smiles  experimental.value
1  COc1ncc(-c2cc(-c3ncc(CN4C[C@@H](C)O[C@@H](C)C4)o3)c3cn[nH]c3c2)cc1NS(C)(=O)=O                 2.6
2  COc1ncc(-c2cc3c(c(NC(=O)CN4CCOCC4)c2)COC3)cc1NS(C)(=O)=O                 1.3
3  COc1ncc(-c2cc3c(c(NC(=O)c4cccc(C)n4)c2)COC3)cc1NS(C)(=O)=O                 3.4
4  COc1ncc(-c2cc3c(c(-c4nnc(C)o4)c2)COC3)cc1NS(C)(=O)=O                 0.9

====

Molecular target: Tyrosine-protein kinase SYK (Homo sapiens)
OBSERVATION_TYPE: IC50

> print(dat)
                               input.smiles                          target.or.system  observation.type  experimental.value
1  COc1ncc(-c2cc3c(c(NC(=O)CN4CCOCC4)c2)COC3)cc1NS(C)(=O)=O  Tyrosine-protein kinase SYK (Homo sapiens)              IC50             > 10 µM

====

Target: UniProt Q9BTU6
Sequence (Q9BTU6 whole entry): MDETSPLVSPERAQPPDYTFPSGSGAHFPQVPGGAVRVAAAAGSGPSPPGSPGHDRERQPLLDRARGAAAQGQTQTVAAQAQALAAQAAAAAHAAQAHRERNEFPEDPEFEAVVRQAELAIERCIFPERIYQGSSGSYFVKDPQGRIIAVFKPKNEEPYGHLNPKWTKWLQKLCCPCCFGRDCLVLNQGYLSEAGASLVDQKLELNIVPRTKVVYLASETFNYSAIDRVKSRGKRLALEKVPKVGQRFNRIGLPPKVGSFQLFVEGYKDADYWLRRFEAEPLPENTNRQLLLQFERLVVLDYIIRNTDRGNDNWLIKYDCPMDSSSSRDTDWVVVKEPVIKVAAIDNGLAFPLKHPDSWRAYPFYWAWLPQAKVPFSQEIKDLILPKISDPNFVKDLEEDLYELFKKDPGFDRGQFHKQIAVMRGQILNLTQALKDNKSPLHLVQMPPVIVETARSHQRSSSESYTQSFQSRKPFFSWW
pIC50: −log10 of the molar value.
OBSERVATION_TYPE: pIC50

> print(dat)
                               input.smiles  experimental.value
1  COc1ncc(-c2cc3c(c(NC(=O)CN4CCOCC4)c2)COC3)cc1NS(C)(=O)=O              < 5.00

====

Assay: AUC(infinity) in Brown Norway rat acute OVA model of TH2-driven lung inflammation at 9 mg/kg, po pretreated for 30 mins followed by OVA challenge
Assay type: ADME, organism-based
Parameters: dose 9 mg/kg, route oral, time infinity
Details: in vivo
OBSERVATION_TYPE: AUC(0-inf) (ng·h/mL)

> print(dat)
                               input.smiles  experimental.value
1  COc1ncc(-c2cc3c(c(NC(=O)CN4CCOCC4)c2)COC3)cc1NS(C)(=O)=O                2620

====

Test: Clearance in rat liver microsomes at 0.5 uM measured up to 30 mins by LC-MS/MS analysis
Format: ADME, Microsome
Settings: 0.5 h
OBSERVATION_TYPE: CLH

> print(dat)
                               input.smiles  experimental.value
1  COc1ncc(-c2cc3c(c(NC(=O)CN4CCOCC4)c2)COC3)cc1NS(C)(=O)=O      < 0.5 mL/min/g
2  COc1ncc(-c2cc3c(c(-c4nnc(C)o4)c2)COC3)cc1NS(C)(=O)=O      < 0.5 mL/min/g
3  COc1ncc(-c2cc3c(c(NC(=O)c4cccc(C)n4)c2)COC3)cc1NS(C)(=O)=O        1.2 mL/min/g
4  COc1ncc(-c2cc(-c3ncc(CN4C[C@@H](C)O[C@@H](C)C4)o3)c3cn[nH]c3c2)cc1NS(C)(=O)=O        1.9 mL/min/g

====

Biological target: Albumin (Homo sapiens, UniProt P02768)
Sequence (P02768 whole entry): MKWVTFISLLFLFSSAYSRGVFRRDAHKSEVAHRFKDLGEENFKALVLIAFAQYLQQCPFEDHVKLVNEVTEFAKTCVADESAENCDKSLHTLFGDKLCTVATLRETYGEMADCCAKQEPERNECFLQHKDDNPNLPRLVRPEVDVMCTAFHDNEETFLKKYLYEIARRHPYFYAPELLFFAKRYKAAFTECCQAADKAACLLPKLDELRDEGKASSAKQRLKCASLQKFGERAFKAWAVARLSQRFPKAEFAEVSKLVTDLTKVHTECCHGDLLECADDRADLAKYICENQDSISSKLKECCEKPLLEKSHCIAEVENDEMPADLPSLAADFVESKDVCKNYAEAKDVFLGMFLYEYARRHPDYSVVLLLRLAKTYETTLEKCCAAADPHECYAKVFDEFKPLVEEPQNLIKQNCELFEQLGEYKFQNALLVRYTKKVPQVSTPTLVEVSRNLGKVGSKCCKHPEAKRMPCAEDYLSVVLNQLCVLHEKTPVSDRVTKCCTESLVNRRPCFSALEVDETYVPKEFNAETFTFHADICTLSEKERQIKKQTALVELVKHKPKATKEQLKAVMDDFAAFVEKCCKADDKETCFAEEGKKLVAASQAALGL
Assay: Binding affinity to human serum albumin by HPLC analysis
Format: ADME
Conditions: read-out: PB (converted)
Parameter: fraction unbound. Scope: all listed entries.
OBSERVATION_TYPE: fraction unbound

> print(dat)
                               input.smiles  experimental.value
1  COc1ncc(-c2cc3c(c(-c4nnc(C)o4)c2)COC3)cc1NS(C)(=O)=O                 0.1
2  COc1ncc(-c2cc3c(c(NC(=O)CN4CCOCC4)c2)COC3)cc1NS(C)(=O)=O                0.36
3  COc1ncc(-c2cc3c(c(NC(=O)c4cccc(C)n4)c2)COC3)cc1NS(C)(=O)=O                0.07
4  COc1ncc(-c2cc(-c3ncc(CN4C[C@@H](C)O[C@@H](C)C4)o3)c3cn[nH]c3c2)cc1NS(C)(=O)=O                 0.1

====

Parameter: Ratio IC50. Scope: all listed entries.
Organism: Homo sapiens
Assay: Selectivity ratio of IC50 for PI3Kalpha (unknown origin) to IC50 for PI3Kdelta (unknown origin)
OBSERVATION_TYPE: Ratio IC50

> print(dat)
                               input.smiles  observation.type  experimental.value
1  COc1ncc(-c2cc3c(c(NC(=O)c4csc(C)n4)c2)COC3)cc1NS(C)(=O)=O        Ratio IC50                  50
2  COc1ncc(-c2cc3c(c(NC(=O)CN4CCOCC4)c2)COC3)cc1NS(C)(=O)=O        Ratio IC50                  25
3  COc1ncc(-c2cc3c(c(NC(=O)c4cccc(C)n4)c2)COC3)cc1NS(C)(=O)=O        Ratio IC50                  50
4  COc1ncc(-c2cc3c(c(-c4nnc(C)o4)c2)COC3)cc1NS(C)(=O)=O        Ratio IC50                   5
5  COc1ncc(-c2cc(NC(=O)c3csc(C)n3)c3cn[nH]c3c2)cc1NS(C)(=O)=O        Ratio IC50                  63
6   COc1ncc(-c2ccc3c(c2)COC3)cc1NS(C)(=O)=O        Ratio IC50                   5
7  COc1ncc(-c2cc3c(c(-c4ccccn4)c2)COC3)cc1NS(C)(=O)=O        Ratio IC50                  10
8  COc1ncc(-c2cc3c(c(NC(C)=O)c2)COC3)cc1NS(C)(=O)=O        Ratio IC50                   4

====

Assay: Lipophilicity, log D of compound at pH 7.4 by chromatographic method
Assay type: physicochemical
Settings: buffer
OBSERVATION_TYPE: chromatographic logD

> print(dat)
                               input.smiles      observation.type  experimental.value
1  COc1ncc(-c2cc(-c3ncc(CN4C[C@@H](C)O[C@@H](C)C4)o3)c3cn[nH]c3c2)cc1NS(C)(=O)=O  chromatographic logD                 3.3
2  COc1ncc(-c2ccc3cn[nH]c3c2)cc1NS(C)(=O)=O  chromatographic logD                 2.6
3   COc1ncc(-c2ccc3c(c2)COC3)cc1NS(C)(=O)=O  chromatographic logD                 3.5

====

Parameter: CLH. Scope: all listed entries.
Experiment: Clearance in human liver microsomes at 0.5 uM measured up to 30 mins by LC-MS/MS analysis
Assay type: ADME, Microsome
Details: 0.5 h
OBSERVATION_TYPE: CLH

> print(dat)
                               input.smiles  observation.type  experimental.value
1  COc1ncc(-c2cc(-c3ncc(CN4C[C@@H](C)O[C@@H](C)C4)o3)c3cn[nH]c3c2)cc1NS(C)(=O)=O               CLH        3.2 mL/min/g
2  COc1ncc(-c2cc3c(c(-c4nnc(C)o4)c2)COC3)cc1NS(C)(=O)=O               CLH      < 0.5 mL/min/g
3  COc1ncc(-c2cc3c(c(NC(=O)c4cccc(C)n4)c2)COC3)cc1NS(C)(=O)=O               CLH      < 0.5 mL/min/g
4  COc1ncc(-c2cc3c(c(NC(=O)CN4CCOCC4)c2)COC3)cc1NS(C)(=O)=O               CLH      < 0.5 mL/min/g
